Test: Thermostability (Tm, Tonset, Tagg) by Nanotemper DSF
Format: physicochemical
Conditions: Replicate 1; in °C (unit assumed)
Response field label takes label 1 when Tm, first melting point (Tm1) is strictly below 50 and label 0 in all other cases.

molecule: SDAB22110-3-2-H08: anti-Fel d1 VHH clone, SEQ ID NO: 53 (protein) VHH: QVQLVESGGGLVQPGGSLRLSCAASGFTFSRKGMSWYRQVPGKEREWVARIYSTGEKTDYADSVKGRFTISRDNAKNMVYLDMNSLKPEDTAVYYCKAWGYEYWNQGTQVTVSS
answer.label: label 1
//
molecule: SDAB22110-4-3-E05: anti-Fel d1 VHH clone, SEQ ID NO: 55 (protein) VHH: QVQLVESGGGLVQPGGSLRLSCVGSGFTFSQYAMRWYRQVPGKARELVAAISRSGDFMYYADSVKGRFTISRDNVKSAVILQMNSLKPEDTAVYYCYGQATISDTLWGQGTQVTVSS
answer.label: label 1
//
molecule: SDAB22110-4-3-H02: anti-Fel d1 VHH clone, SEQ ID NO: 57 (protein) VHH: QLQLVESGGGLVQPGGSLRLSCEASGFTFKYYTMSWYRQAPGKERELVATITNGDRTNYADSVKGRFTISRDNAKNTLYLQMNSLKPYDTAVYYCNRHLPLLQIWGQGTQVTVSS
answer.label: label 0
//
molecule: SDAB22110-1-1-B9-1: anti-Fel d1 VHH clone, SEQ ID NO: 50 (protein) VHH: DVQLVESGGGWVQPGGSLRLSCAASGFTFTSYALSWVRQAPGKGLEWVSLADARGTSTTYADSVKGRFTISKDNPRNTLYLLMNSLKPEDTAVYYCTKGFDGNWYPDYDYWGQGTQVTVSS
answer.label: label 0
//
molecule: SDAB22110-3-1-D9-1: anti-Fel d1 VHH clone, SEQ ID NO: 52 (protein) VHH: AVQLVESGGGLVQPGGSLRLSCIISGFTSVSYSIVWFRQAPGKGREGVSCIGSSGGSTDYIDSVKGRFTISRDSAKNTVYLQMDCLKPEDTAVYYCAALRDVYRLCVIDYMNNDYWGQGTQVTVSS
answer.label: label 1
//
molecule: DAB22110-1-1-C3 (protein) VHH: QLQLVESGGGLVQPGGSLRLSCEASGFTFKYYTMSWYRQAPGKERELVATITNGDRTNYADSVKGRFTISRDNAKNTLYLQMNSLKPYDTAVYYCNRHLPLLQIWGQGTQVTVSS
answer.label: label 0
//
molecule: SDAB22110-4-3-B02: anti-Fel d1 VHH clone, SEQ ID NO: 54 (protein) VHH: QVQLVESGGGLVQPGGSLRLSCVASGFTFSFYTMEWYRQAAGKQRELVAGLTASGTTHYADSAKGRFTISRDNAWNTVFLQMNGLKPEDTAVYYCNAYSGYRDYWGQGTQVTVSL
answer.label: label 1
